EXPERIMENTAL SYSTEM: BQ.1.1 spike protein (SARS-CoV-2 variant BQ.1.1, UniProt P0DTC2 14-1273)
PROTOCOL SUMMARY: cell-based or functional assay
MEASUREMENT LABEL: IC50 (pVNT)

(Q) Output measured IC50 (pVNT) for this item: Ab51 (10x-L8N-c86) (antibody, V domains shown) VH: EVQLVESGGGLVKPGESLRLSCAASGFTFSSSSLNWVRQAPGKGLEWVSSISISGDYTYYADSVKGRFTISRDNGKNSVYLQMDRLRVEDTAMYYCARDRFGFYDMLAHSYNVGFFQSWGQGTLVAVSS VL: DIRMTQSPSSLSASVGDSVTITCRASQDITNYLAWFQQKPGKAPKSLIYSASILQSGVPSKFSGSGSGTDFTLTISSLQPEDFATYYCQQYLTYPITFGQGTRLEIK
(A) ≤ 550 ng/ml

(Q) Output measured IC50 (pVNT) for this item: Ab41 (10x-L8N-c39) (antibody, V domains shown) VH: QVQLVQSGAEVKKPGASVKVSCKGSGYTFTDYGISWVRQAPGQGLEWMGWIRAYNGNTDYAQKFQGRVTMTRDTSTTTAYMELRSLRSDDTAVYFCALNLIAAAATPFDHWGQGTLVTVSS VL: EIVLTQSPGTLSLSRGERATLSCRASQSVSSSYLAWYQQKRGQAPRLLIYGATSRATGIPDRFSGSGSGTDFTLTISRLEPEDFAVYYCQHYGSSPPPFGGGTKVEIR
(A) ≤ 550 ng/ml

(Q) Output measured IC50 (pVNT) for this item: Ab4 (G7.2) (antibody, V domains shown) VH: QVQLVQSGAEVKKPGSSVKVSCEASGGTFSTYAISWVRQAPGQGLEWMGRIIPIFGIANYAQKFQGRVTITADKSTSTAYMEVSSLRSEDTAVYYCATTFYDHSSTYRTHSMDVWGQGTTVTVSS VL: DIQMTQSPSSLSASVGDRVTITCRASQSISNYLNWYQQRPGKAPKLLIYAASGLQSGVPSRFSGSGSGTNFTLTISTLHPEDFATYYCQQTHSTPRAFGGGTKVEIK
(A) ≤ 300 ng/ml
